IC50 HDF: recorded values
test system: HDF cells; test: Direct cytotoxicity test of IL powders, Alamar blue assay; assay type: cell-based, human; conditions: 24 h of incubation, n = 3, mean ± SD
EXPERIMENTAL_ENDPOINT: IC50 HDF

{"SMILES_ENTRY": "CCCCCCCCCCCCCCCCCC[n+]1ccn(C)c1.COC(=O)c1cc(C(=O)OC)cc(S(=O)(=O)[O-])c1", "VALUE_OBSERVED": "4.01 ± 0.14 µg/mL"}
{"SMILES_ENTRY": "CCCCCCCCCCCCCCCC[n+]1ccn(C)c1.COC(=O)c1cc(C(=O)OC)cc(S(=O)(=O)[O-])c1", "VALUE_OBSERVED": "5.56 ± 0.04 µg/mL"}
{"SMILES_ENTRY": "CCCCCCCCCC[n+]1ccn(C)c1.COC(=O)c1cc(C(=O)OC)cc(S(=O)(=O)[O-])c1", "VALUE_OBSERVED": "5.56 ± 0.04 µg/mL"}
{"SMILES_ENTRY": "CCCCCCCCCCCCCCCCCCCCn1cc[n+](C)c1.COC(=O)c1cc(C(=O)OC)cc(S(=O)(=O)[O-])c1", "VALUE_OBSERVED": "5.10 ± 0.02 µg/mL"}
{"SMILES_ENTRY": "CCCCCCCCCCCCCC[n+]1ccn(C)c1.COC(=O)c1cc(C(=O)OC)cc(S(=O)(=O)[O-])c1", "VALUE_OBSERVED": "5.56 ± 0.04 µg/mL"}
{"SMILES_ENTRY": "CCCCCCCCC[n+]1ccn(C)c1.COC(=O)c1cc(C(=O)OC)cc(S(=O)(=O)[O-])c1", "VALUE_OBSERVED": "4.96 ± 0.05 µg/mL"}
